Measured DC50 by item
# Target Of Assay: BRM (Homo sapiens, UniProt P51531)
# Construct: In-Cell Western Screen of BRM Degradation in SW1573 Cells; endogenous in cells; host or cells: SW1573
# Sequence (P51531 whole entry): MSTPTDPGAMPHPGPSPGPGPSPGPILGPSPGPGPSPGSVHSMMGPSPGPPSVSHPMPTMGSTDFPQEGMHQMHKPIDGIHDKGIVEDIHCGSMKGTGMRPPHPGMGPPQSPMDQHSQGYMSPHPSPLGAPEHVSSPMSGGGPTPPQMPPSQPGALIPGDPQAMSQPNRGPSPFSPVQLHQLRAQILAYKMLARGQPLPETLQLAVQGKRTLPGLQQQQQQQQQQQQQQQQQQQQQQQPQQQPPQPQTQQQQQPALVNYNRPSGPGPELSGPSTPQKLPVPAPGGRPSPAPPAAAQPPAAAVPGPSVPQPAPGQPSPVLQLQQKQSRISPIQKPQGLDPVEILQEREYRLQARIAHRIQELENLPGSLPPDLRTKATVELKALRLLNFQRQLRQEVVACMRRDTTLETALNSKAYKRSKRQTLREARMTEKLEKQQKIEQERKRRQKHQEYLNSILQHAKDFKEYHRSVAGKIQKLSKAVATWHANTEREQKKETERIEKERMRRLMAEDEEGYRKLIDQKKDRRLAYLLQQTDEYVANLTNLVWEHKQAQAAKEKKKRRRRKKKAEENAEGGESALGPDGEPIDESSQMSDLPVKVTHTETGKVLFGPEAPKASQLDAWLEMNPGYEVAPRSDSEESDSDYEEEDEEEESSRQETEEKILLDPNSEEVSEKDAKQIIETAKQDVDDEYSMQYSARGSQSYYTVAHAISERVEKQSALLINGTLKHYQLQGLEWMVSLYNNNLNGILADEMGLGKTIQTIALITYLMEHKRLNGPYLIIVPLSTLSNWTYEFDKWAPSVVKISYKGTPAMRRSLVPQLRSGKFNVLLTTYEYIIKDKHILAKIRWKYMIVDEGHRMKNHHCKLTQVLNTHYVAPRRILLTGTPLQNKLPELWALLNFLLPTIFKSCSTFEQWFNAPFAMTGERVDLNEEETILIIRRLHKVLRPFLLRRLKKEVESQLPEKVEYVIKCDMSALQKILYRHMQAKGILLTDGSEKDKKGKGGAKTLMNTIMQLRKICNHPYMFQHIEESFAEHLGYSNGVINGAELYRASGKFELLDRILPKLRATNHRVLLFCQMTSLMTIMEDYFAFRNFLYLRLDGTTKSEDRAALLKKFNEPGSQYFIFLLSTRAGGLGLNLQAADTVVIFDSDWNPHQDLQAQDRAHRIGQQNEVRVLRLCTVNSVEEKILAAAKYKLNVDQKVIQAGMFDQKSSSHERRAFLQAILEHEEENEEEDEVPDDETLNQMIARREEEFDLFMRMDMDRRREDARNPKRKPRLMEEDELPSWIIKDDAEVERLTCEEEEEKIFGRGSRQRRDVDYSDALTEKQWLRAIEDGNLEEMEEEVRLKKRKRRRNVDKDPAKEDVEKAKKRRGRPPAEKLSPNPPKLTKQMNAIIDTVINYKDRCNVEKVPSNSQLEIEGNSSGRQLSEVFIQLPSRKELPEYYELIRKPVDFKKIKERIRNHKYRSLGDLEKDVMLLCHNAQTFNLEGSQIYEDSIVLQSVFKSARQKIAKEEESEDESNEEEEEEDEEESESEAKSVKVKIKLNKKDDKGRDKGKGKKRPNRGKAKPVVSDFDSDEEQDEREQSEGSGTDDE
# Assay Comment: In-cell Western screen of BRM degradation in SW1573 cells (Dmax and DC50)
# Type: cell-based
# Settings: BRM degradation, SW1573 cells; read-out: DC50

// Cc1ncsc1-c1ccc([C@H](C)NC(=O)[C@@H]2C[C@@H](O)CN2C(=O)[C@H](c2cc(N3CCC(C#CCN4CCC(Oc5cc(N6C7CCC6CN(c6cc(-c8ccccc8O)nnc6N)C7)ccn5)CC4)CC3)no2)C(C)C)cc1 [compound 676] : DC50 value = 2.5 to 10 nM

---

# Target Of Assay: BRM (Homo sapiens)
# Construct: In-Cell Western Screen of BRM Degradation in SW1573 Cells; endogenous in cells; host or cells: SW1573
# Assay Comment: In-cell Western screen of BRM degradation in SW1573 cells (Dmax and DC50)
# Assay type: cell-based
# Settings: BRM degradation, SW1573 cells; read-out: DC50
Readout Kind: DC50

Examples with answers:
>>> recorded_measurement("Cc1ncsc1-c1ccc(CNC(=O)[C@@H]2C[C@@H](O)CN2C(=O)[C@@H](c2cc(OCC#Cc3ccc(O[C@H]4C[C@H](Oc5cc(N6C7CCC6CN(c6cc(-c8ccccc8O)nnc6N)C7)ccn5)C4)cn3)no2)C(C)C)cc1")
"< 0.0025 µM"
>>> recorded_measurement("Cc1ncsc1-c1ccc([C@@H](CN)NC(=O)[C@@H]2C[C@@H](O)CN2C(=O)[C@@H](c2cc(OCCN3CCN(CCOc4cc(N5C6CCC5CN(c5cc(-c7ccccc7O)nnc5N)C6)ccn4)CC3)no2)C(C)C)cc1")
"> 0.03 µM"
>>> recorded_measurement("Cc1ncsc1-c1ccc([C@H](C)NC(=O)[C@@H]2C[C@@H](O)CN2C(=O)[C@@H](c2cc(OCCN3CCC(O[C@H]4C[C@H](Oc5cc(N6C7CCC6CN(c6cc(-c8ccccc8O)nnc6N)C7)ccn5)C4)CC3)no2)C(C)C)c(F)c1")
"< 0.0025 µM"
>>> recorded_measurement("Cc1ncsc1-c1ccc(CNC(=O)[C@@H]2C[C@@H](O)CN2C(=O)[C@@H](c2cc(OCCOCCOCCCCN3CCOC4(CCN(c5cc(-c6ccccc6O)nnc5N)CC4)C3)no2)C(C)C)cc1")
"0.0025 to 0.01 µM"
>>> recorded_measurement("Cc1ncsc1-c1ccc([C@H](C)NC(=O)[C@@H]2C[C@@H](O)CN2C(=O)[C@H](c2cc(OCCOc3ccc(C(C)n4cc(-c5cc(-c6ccccc6O)nnc5N)cn4)cn3)no2)C(C)C)cc1 (some centres unmarked)")
"< 0.0025 µM"
>>> recorded_measurement("CC(C)[C@@H](C(=O)N1C[C@H](O)C[C@H]1C(=O)N[C@@H](C)c1ccc(C2(F)CC2)cc1)c1cc(N2CCC(CN3CCC(O[C@H]4C[C@H](Oc5cc(N6C7CCC6CN(c6cc(-c8ccccc8O)nnc6N)C7)ccn5)C4)CC3)CC2)no1")
"0.0025 to 0.01 µM"

// Cc1ncsc1-c1ccc([C@H](C)NC(=O)[C@@H]2C[C@@H](O)CN2C(=O)[C@H](c2cc(OCCOCCOCCCCN3CCC4(CCN(c5cc(-c6ccccc6O)nnc5N)CC4)C3)no2)C(C)C)cc1 : DC50 value = > 0.03 µM

// CC(C)[C@H](C(=O)N1C[C@H](O)C[C@H]1C(=O)N[C@@H](C)c1ccc(-n2ccnc2CO)cc1)c1cc(OCC#Cc2ccc(O[C@H]3C[C@H](Oc4cc(N5C6CCC5CN(c5cc(-c7ccccc7O)nnc5N)C6)ccn4)C3)cn2)no1 : DC50 value = 0.01 to 0.03 µM
